Experiment: High-throughput drug toxicity screening in the BPDCN cell line Cal-1 (AID 1224825);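 note: cells exposed to compounds for 48 h; 100% = DMSO and 0% = bortezomib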
Conditions: Cal-1 BPDCN cell viability, qHTS; at 45.8 µM (top of the series) unless noted
assayReadout: viability (% of control)

Here is how some compounds turned out for viability (% of control).
* COCC(=O)NCC=Cc1ccc2ncnc(Nc3ccc(Oc4ccc(C)nc4)c(C)c3)c2c1 | 20.7%
* CC(C)(C)OC(=O)CN(Cc1ccc(Cl)cc1)Cc1ccc([N+](=O)[O-])s1 | 30.5%
* CN1CCN(CCCN2c3ccccc3Sc3ccc(C(F)(F)F)cc32)CC1 | 77.3%

The compound NC[C@H](O)c1ccc(O)c(O)c1 showed viability (% of control) equal to 96.3%

The compound O=C(c1cc(Cc2n[nH]c(=O)c3ccccc23)ccc1F)N1CCN(C(=O)C2CC2)CC1 showed viability (% of control) equal to 45.4%

The compound O=C(C1CC1)N1CC[C@@H](Cn2c(-c3ccc(-c4ccc5occc5c4)cc3)nc3cnccc32)C1 showed viability (% of control) equal to 95.4%

The compound O=C(C=Cc1ccc(/C=C/C(=O)Nc2ccc(C3=NCCN3)cc2)cc1)Nc1ccc(C2=NCCN2)cc1 showed viability (% of control) equal to 104%

The compound CCCS(=O)(=O)Nc1ccc(F)c(C(=O)c2c[nH]c3ncc(Cl)cc23)c1F showed viability (% of control) equal to 17.1%
